src = PubChem BioAssay (NCI)

# System: RPMI-8226 leukemia
# PROTOCOL_NOTES: NCI tumour cell line growth inhibition, 48 h
OBSERVATION_TYPE: TGI

{"COMPOUND": "Cc1ccc2c(O)c(O)cc(NC(C)CCCN)c2n1 (stereo unspecified)", "TGI": "> 53.2 µM"}

Look at each compound and report its TGI.
1. COc1ccc(-n2c3c(c4c(CN5CCOCC5)c(O)ccc42)CCc2ccccc2C3=O)cc1
2. [N-]=[N+]=CC(=O)OCC1SCCCS1
3. COc1cc(-c2nc3sc4c(c3c(=O)[nH]2)CCCCCC4)cc(OC)c1OC
4. c1ccc(-n2nnnc2-c2cccc3ccccc23)cc1
5. Cc1cc(C)c(O)c(CN(C)Cc2cc(Cl)cc(Cl)c2O)c1

Ans:
["> 100 µM", "> 100 µM", "12.6 µM", "45.7 µM", "23.2 µM"]

For every item below, please supply its TGI.
1. COc1cccc(/C=N/[N-]C(N)=O)c1[O-].[Ni+2].[OH3+].c1cnc2c(c1)ccc1cccnc12
2. Cc1ccc(SC2=CC(=O)c3nc4ccccc4c4ccnc2c34)cc1
3. O=C(N/N=C/c1ccccc1O)C(=O)Nc1ccc(F)cc1
4. O=C1C(Br)=CC2(C=C1Br)CCNC1=C2C(=O)c2cccnc2C1=O

Ans:
["> 100 µM", "> 100 µM", "> 100 µM", "36.9 µM"]

Q: # input compound: `C#CC(F)(F)[C@]1(O)CC[C@H]2[C@@H]3CCC4=CC(=O)CCC4=C3[C@@H](c3ccc(C(C)=O)cc3)C[C@@]21C` ; wanted: its TGI
Ans: 6.25 µM

* * *

# Tested on: IGROV1 ovarian
# PROTOCOL_NOTES: NCI tumour cell line growth inhibition, 48 h
OBSERVATION_TYPE: TGI

Some entries whose results are on file:
{"MOLECULE": "Cc1ccc(SC2=CC(=O)c3nc4ccccc4c4ccnc2c34)cc1", "OBSERVATION_TYPE": "TGI", "ENDPOINT_VALUE": "> 58.5 µM"}
{"MOLECULE": "C=CC(=O)N[C@H]1CCOC[C@H]1Nc1ncc2cc(-c3c(Cl)c(OC)cc(OC)c3Cl)ccc2n1", "OBSERVATION_TYPE": "TGI", "ENDPOINT_VALUE": "> 100 µM"}
{"MOLECULE": "C=CCSC1=N/C(=C\\c2ccccc2)C(=O)N1CC=C", "OBSERVATION_TYPE": "TGI", "ENDPOINT_VALUE": "> 100 µM"}
{"MOLECULE": "[N-]=[N+]=CC(=O)OCC1SCCCS1", "OBSERVATION_TYPE": "TGI", "ENDPOINT_VALUE": "> 100 µM"}

For every record below, what is its TGI?
1. OC1(c2cc3ccccc3s2)CCCCC1
2. COc1ccc(-c2c(N)n(-c3cccc(C(=O)O)c3)c(=O)c3cc([N+](=O)[O-])ccc23)cc1
3. COc1ccc(/C=C/C(=O)Oc2cc(O)cc(O)c2)cc1
4. O=c1[nH]cnc2[nH]ncc12
5. NC(=S)Nc1[nH]c(=S)nc2c1SC1=N/C(=C\c3ccco3)C(=O)N12

Ans:
1: > 100 µM; 2: > 100 µM; 3: 76.1 µM; 4: > 5000 µM; 5: > 100 µM

// each listed molecule needs a value for TGI
1. O=C(C(=O)N1CC2C=CC1CC2)c1c[nH]c2ccccc12 (centres undefined)
2. O=C(O)c1cc2cc(OCc3ccccc3)c(OCc3ccccc3)cc2[nH]1
3. CC(C)c1ccc(/C=C2\CSCC3=C2NC(=S)NC3c2ccc(C(C)C)cc2)cc1 (centres undefined)

Ans:
1: > 100 µM; 2: 54.2 µM; 3: > 100 µM
